Reference source: patent US9609868B2

# procedure-details: log P by HPLC on reversed-phase column (C18), EEC directive 79/831 Annex V.A8
# Type: physicochemical
# assay-context: log p
In this section, each of the compounds is paired with its reported chromatographic logP.
Kindly provide the number alone.

Q: What value of chromatographic logP has been recorded for this entry: CO/N=C/c1cc(C)c(NC(=O)c2cc(OC(F)F)nn2-c2ncccc2Cl)c(C(=O)NNC(=O)OC)c1
Result: 2.38

Query compound follows.
Q: What value of chromatographic logP has been recorded for this entry: CO/N=C/c1cc(C)c(NC(=O)c2cc(OCC(F)F)nn2-c2ncccc2Cl)c(C(=O)NN(C)C(=O)OC)c1
Result: 2.58

====

# procedure-details: log P by HPLC on reversed-phase column (C18), EEC directive 79/831 Annex V.A8
# Format: physicochemical
# assay-context: Table A; HPLC reversed-phase C18, 43° C.; data refer to the E isomer
In this section, each of the compounds is paired with its reported log p.
Kindly provide the number alone.

Q: What value of log p has been recorded for this entry: C#CCOC(=O)NNC(=O)c1cc(C=NOC)cc(C)c1NC(=O)c1cc(C(F)(F)F)nn1-c1ncccc1Cl
Result: 2.86

Q: What about CON=Cc1cc(C)c(NC(=O)c2cc(Br)nn2-c2ncccc2Cl)c(C(=O)NN(C)C(=O)OC)c1 (mixture of isomers) ?
Result: 2.50

Q: What about C#CCOC(=O)NNC(=O)c1cc(C=NOC)cc(C)c1NC(=O)c1cc(Br)nn1-c1ncccc1Cl ?
Result: 2.58

Query compound follows.
Q: What value of log p has been recorded for this entry: CON=Cc1cc(C)c(NC(=O)c2cc(Br)nn2-c2ncccc2Cl)c(C(=O)NNS(C)(=O)=O)c1
Result: 2.30

====

# procedure-details: log P by HPLC on reversed-phase column (C18), EEC directive 79/831 Annex V.A8
# Format: physicochemical
# assay-context: Table A; HPLC reversed-phase C18, 43° C.; data refer to the E isomer
Please use Y for log p under 3 and N for everything else, ties included.

Observe how each entry below is paired with its result.
Q: For CON=Cc1cc(C)c(NC(=O)c2cc(OC)nn2-c2ncccc2Cl)c(C(=O)NNC(=O)OC)c1 (mixture of isomers) [A-38] , is the recorded log p below the cut-off of 3?
Result: Y

Q: What about CON=Cc1cc(C)c(NC(=O)c2cc(C(F)(F)F)nn2-c2ncccc2Cl)c(C(=O)NNC(=O)OC(C)C)c1 [A-18] ?
Result: N

Q: What about CON=Cc1cc(C)c(NC(=O)c2cc(Br)nn2-c2ncccc2Cl)c(C(=O)N(C)NC(=O)OC)c1 [A-03] ?
Result: Y

Q: What about C=CCOC(=O)NN(C)C(=O)c1cc(C=NOC)cc(C)c1NC(=O)c1cc(Br)nn1-c1ncccc1Cl [A-07] ?
Result: N

Q: What about CON=Cc1cc(C)c(NC(=O)c2cc(OC)nn2-c2ncccc2Cl)c(C(=O)NNC(=O)OC)c1 (mixture of isomers) [A-40] ?
Result: Y

Next up:
Q: For CCOc1cc(C(=O)Nc2c(C)cc(C=NOC)cc2C(=O)NNC(=O)OC)n(-c2ncccc2Cl)n1 (mixture of isomers) [A-34] , is the recorded log p below the cut-off of 3?
Result: Y

====

# procedure-details: log P by HPLC on reversed-phase column (C18), EEC directive 79/831 Annex V.A8
# Format: physicochemical
# assay-context: Table A; HPLC reversed-phase C18, 43° C.; data refer to the E isomer
Please use Met for log p under 3 and Not met for everything else, ties included.

Q: For C#CCOC(=O)NN(C)C(=O)c1cc(C=NOC)cc(C)c1NC(=O)c1cc(C(F)(F)F)nn1-c1ncccc1Cl [A-29] , is the recorded log p below the cut-off of 3?
Result: Not met

Q: What about CON=Cc1cc(C)c(NC(=O)c2cc(OC(F)F)nn2-c2ncccc2Cl)c(C(=O)NN(C)C(=O)OC)c1 (mixture of isomers) [A-49] ?
Result: Met

Q: What about CON=Cc1cc(C)c(NC(=O)c2cc(C(F)F)nn2-c2ncccc2Cl)c(C(=O)NNC(=O)OC)c1 (mixture of isomers) [A-39] ?
Result: Met

***
Q: For CON=Cc1cc(C)c(NC(=O)c2cc(OC(C)C)nn2-c2ncccc2Cl)c(C(=O)NNC(=O)OC)c1 (mixture of isomers) [A-35] , is the recorded log p below the cut-off of 3?
Result: Met

Q: What about CON=Cc1cc(C)c(NC(=O)c2cc(C(F)(F)F)nn2-c2ncccc2Cl)c(C(=O)N(C)NC(=O)Oc2ccccc2)c1 [A-26] ?
Result: Not met

Q: What about CON=Cc1cc(C)c(NC(=O)c2cc(Br)nn2-c2ncccc2Cl)c(C(=O)NNC(=O)OC(C)C)c1 [A-06] ?
Result: Met

Q: What about CON=Cc1cc(C)c(NC(=O)c2cc(OCC(F)F)nn2-c2ncccc2Cl)c(C(=O)NNC(=O)OC)c1 (mixture of isomers) [A-37] ?
Result: Met
